# method_notes: qHTS assay to identify small molecule that activate the aryl hydrocarbon receptor (AhR) signaling pathway - cell viability counter screen (AID 743086);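 note: HepG2 liver cells carrying the AhR DRE luciferase reporter; nearly all actives have a fitted effect of over 45% in size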
# assay_context: HepG2-AhR-luc viability, CellTiter-Fluor, 24 h; series mostly up to 70.3 µM
Records with an inconclusive call do not appear. Calls of active or inactive are those of the source. Calls come from the whole dose curve; as a rule, active = well fitted cell-killing curve with a large enough effect in the repeat runs; inconclusive = weak or mixed curves, or effect the other way; inactive = flat fitted curve, though single readings scatter.
A correct response names exactly one class from 1 (yes) = active, 0 (no) = inactive

Below are worked cases with known answers.
- CN1CC[C@]23c4c5ccc(O)c4O[C@H]2[C@@H](O)C=C[C@H]3[C@H]1C5: 0 (no)
- CCCCCCCCP(=O)(O)O: 0 (no)
- CCCCCCCCCCCCCCCl: 0 (no)
- O=C1c2ccccc2C(=O)N1SC(Cl)(Cl)Cl: 0 (no)
- CCCCC#N: 0 (no)

Consider the record given below.
### Prompt Outcome logged for CCOC(=O)c1cncn1C(C)c1ccccc1 (stereo unspecified) in this assay:
### Response 0 (no)

###

# method_notes: qHTS assay to identify small molecule that activate the aryl hydrocarbon receptor (AhR) signaling pathway - cell viability counter screen (AID 743086);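 note: HepG2 liver cells carrying the AhR DRE luciferase reporter; nearly all actives have a fitted effect of over 45% in size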
# assay_context: HepG2-AhR-luc viability, CellTiter-Fluor, 24 h; series mostly up to 70.3 µM
Records with an inconclusive call do not appear. Activity calls are given as the source filed them. Calls come from the whole dose curve; as a rule, active = well fitted cell-killing curve with a large enough effect in the repeat runs; inconclusive = weak or mixed curves, or effect the other way; inactive = flat fitted curve, though single readings scatter.
Log the outcome using a class from active, inactive

Completed entries (count: 3):
• COc1ccc(C(=O)c2c(C)n(CCN3CCOCC3)c3ccccc23)cc1 = inactive
• Cc1nnc(-c2ccccc2)c(=O)n1N = inactive
• O=C(O)c1cc(I)cc(I)c1I = inactive

### Prompt In this assay, the call recorded for COc1ccc2c(c1OC)C(=O)O[C@H]2[C@@H]1c2cc3c(cc2CCN1C)OCO3 was what?
### Response inactive
